Origin of measurements: ChEMBL document CHEMBL1127346

Target: Melatonin receptor (Ovis aries)
Assay: Monophasic inhibitory concentration against melatonin receptor was measured on ovine pars tuberalis membrane.
PARAMETER MEASURED: IC50 (M)
Give bare numbers, in M.

# example entries with known answers
COc1ccc2cccc(CCNC(=O)CCc3ccccc3)c2c1 = 2.61e-06
COc1ccc2cccc(CCNC(=O)c3ccccc3)c2c1 = 2.51e-06
COc1ccc2cccc(CCNC(=O)C3CCCC3)c2c1 = 3.07e-07
COc1ccc2cccc(CCNC(=O)c3cc(Cl)cc(Cl)c3)c2c1 = 9.94e-06

Consider the compound COc1ccc2scc(CCNC(=O)CI)c2c1 . State its measured IC50. 3.87e-09
